Tested on: Escherichia coli
condition.details: Concentration 20 uM; ASSAY_TEST Inhibition of Bacterial Growth; detection method Absorption (OD600); MEDIA CAMHB; plate type 384well; NBS; CORNING #3640; time 18 hr
Description: Antibacterial activity against Escherichia coli ATCC 25922 (CO-ADD:GN_001); MIC in CAMBH media using NBS plates, by OD(600)
Entries with a potency or affinity are not part of this list.
Recorded Inhibition for the following compounds
quantity.measured: Inhibition (%)

compound | quantity.measured | reported.result
CC1=Nc2ccc(Cl)cc2S(=O)(=O)N1 [DIAZOXIDE] | Inhibition | 5.75
CCCCC[C@H](O)/C=C/[C@H]1[C@H](O)CC(=O)[C@@H]1CCCCCCC(=O)O | Inhibition | 6.55
CCc1ccc(CCOc2ccc(CC3SC(=O)NC3=O)cc2)nc1.Cl (stereo not drawn) [PIOGLITAZONE HYDROCHLORIDE] | Inhibition | -0.97
Cl.O.OC[C@H]1O[C@@H](n2cnc3c(N[C@H]4CCC[C@@H]4O)ncnc32)[C@@H](O)C1O (stereo partly drawn) | Inhibition | 1.98
CNC(=C[N+](=O)[O-])NCCSCc1ccc(CN(C)C)o1.Cl [RANITIDINE HYDROCHLORIDE] | Inhibition | 4.52
CN1CCN(CC/C=C2/c3ccccc3Sc3ccc(S(=O)(=O)N(C)C)cc32)CC1 | Inhibition | 3.6
Cc1cccc(C)c1NC(=O)C(C)N (stereo not drawn) [TOCAINIDE] | Inhibition | 3.98
COC(=O)C1=C(C)NC(C)=C(C(=O)OCCN(C)Cc2ccccc2)C1c1cccc([N+](=O)[O-])c1.Cl (stereo not drawn) [NICARDIPINE HYDROCHLORIDE] | Inhibition | 2.23
